# Lookup of reported Preemergence herbicidal rating CASOB keyed by entry
# Tested on: CASOB (Sicklepod)
# procedureDetails: Preemergence herbicidal evaluation
# Format: in vivo, Cassia obtusifolia
# conditionNotes: rate 0.0625 kg/ha; rated 4-5 weeks after treatment
readoutName: Preemergence herbicidal rating CASOB

>  <compound>
CCOC(=O)CCN1C(=O)CSC1=Nc1cc(-n2c(=O)cc(C(F)(F)F)n(C)c2=O)c(Cl)cc1Cl

>  <measuredResult>
0.0

$$$$
>  <compound>
O=C(O)CC1SC(=Nc2cc(N3C(=O)C4=C(CCCC4)C3=O)c(F)cc2Cl)N(CC(=O)O)C1=O (centres unmarked)

>  <measuredResult>
0.0

$$$$
>  <compound>
C=CCN1C(=O)C(CC(=O)NS(=O)(=O)C(C)C)SC1=Nc1cc(-n2c(=O)cc(C(F)(F)F)n(C)c2=O)c(F)cc1Cl (centres unmarked)

>  <measuredResult>
0.0

$$$$
>  <compound>
Cn1c(C(F)(F)F)cc(=O)n(-c2cc(N=C3SCC(=O)N3CC(=O)OCC3CC3)c(Cl)cc2F)c1=O

>  <measuredResult>
1.0

$$$$
>  <compound>
CCOC(=O)CN1C(=O)C(Cc2ccccc2OC(C)C(=O)OC)SC1=Nc1cc(-n2c(=O)cc(C(F)(F)F)n(C)c2=O)c(F)cc1Cl (centres unmarked)

>  <measuredResult>
0.0

$$$$
>  <compound>
C=CCN1C(=O)C(CC(=O)Nc2ccccc2)SC1=Nc1cc(-n2c(=O)cc(C(F)(F)F)n(C)c2=O)c(F)cc1Cl (centres unmarked)

>  <measuredResult>
0.0

$$$$
>  <compound>
CCOC(=O)CN1C(=O)C(CC(=O)O)O/C1=N/c1cc(-n2c(=O)cc(C(F)(F)F)n(C)c2=O)c(F)cc1Cl (centres unmarked)

>  <measuredResult>
0.0

$$$$
>  <compound>
COCCOC(=O)CN1C(=O)CSC1=Nc1cc(-n2c(=O)cc(C(F)(F)F)n(C)c2=O)c(F)cc1Cl

>  <measuredResult>
0.0

$$$$
>  <compound>
COC(=O)[C@H](Cc1ccc([N+](=O)[O-])cc1)N1C(=O)CSC1=Nc1cc(-n2c(=O)cc(C(F)(F)F)n(C)c2=O)c(F)cc1Cl

>  <measuredResult>
0.0

$$$$
>  <compound>
CCOC(=O)CN1C(=O)C[S+]([O-])/C1=N/c1cc(-n2c(=O)cc(C(F)(F)F)n(C)c2=O)c(F)cc1Cl (centres unmarked)

>  <measuredResult>
0.0

$$$$
>  <compound>
CCOC(=O)CN1C(=O)C(Cc2ccccc2OC(C)C(=O)O)S/C1=N/c1cc(-n2c(=O)cc(C(F)(F)F)n(C)c2=O)c(F)cc1Cl (centres unmarked)

>  <measuredResult>
1.0

$$$$

---

# Lookup of reported Postemergence herbicidal rating ORYSAT keyed by entry
# System: ORYSAT (Rice, Tebonnet)
# procedureDetails: Postemergence herbicidal evaluation
# Format: in vivo, Oryza sativa, (L.) Tebonnet
# conditionNotes: Rate 0.0630 kg/ha
readoutName: Postemergence herbicidal rating ORYSAT

>  <molecule>
Cn1c(C(F)(F)F)cc(=O)n(-c2cc(N=C3SCC(=O)N3CCC(=O)O)c(Cl)cc2F)c1=O [Compound 30]

>  <measuredResult>
3.5

$$$$
>  <molecule>
CCOC(=O)CN1C(=O)C(CC(=O)OC(C)C)SC1=Nc1cc(-n2c(=O)cc(C(F)(F)F)n(C)c2=O)c(F)cc1Cl (centres unmarked) [Compound 60]

>  <measuredResult>
5.0

$$$$
>  <molecule>
CCOC(=O)COc1ccccc1CC1S/C(=N/c2cc(-n3c(=O)cc(C(F)(F)F)n(C)c3=O)c(F)cc2Cl)N(CC(=O)OCC)C1=O (centres unmarked) [Compound 42]

>  <measuredResult>
3.0

$$$$
>  <molecule>
CCOP(=O)(CN1C(=O)CSC1=Nc1cc(-n2c(=O)cc(C(F)(F)F)n(C)c2=O)c(F)cc1Cl)OCC [Compound 35]

>  <measuredResult>
3.5

$$$$
>  <molecule>
CCOC(=O)CN1C(=O)C(CC(=O)NC)SC1=Nc1cc(-n2c(=O)cc(C(F)(F)F)n(C)c2=O)c(F)cc1Cl (centres unmarked) [Compound 57]

>  <measuredResult>
3.0

$$$$
>  <molecule>
C=CCN1C(=O)C(CC(=O)O)SC1=Nc1cc(-n2c(=O)cc(C(F)(F)F)n(C)c2=O)c(F)cc1Cl (centres unmarked) [Compound 62]

>  <measuredResult>
7.0

$$$$
>  <molecule>
Cn1c(C(F)(F)F)cc(=O)n(-c2cc(N=C3SCC(=O)N3[C@@H](Cc3ccccc3)C(=O)O)c(Cl)cc2F)c1=O [Compound 53]

>  <measuredResult>
3.5

$$$$
>  <molecule>
Cn1c(C(F)(F)F)cc(=O)n(-c2cc(/N=C3/SCC(=O)N3CC(=O)O)c(Cl)cc2F)c1=O [Compound 52]

>  <measuredResult>
2.0

$$$$

---

# Tested on: GALAP (Galium)
# procedureDetails: Preemergence herbicidal evaluation
# Format: in vivo, Galium aparine
# conditionNotes: rate 0.5000 kg/ha; rated 4-5 weeks after treatment

>  <compound>
CCOC(=O)CN1C(=O)C(SC)SC1=Nc1cc(-n2c(=O)cc(C(F)(F)F)n(C)c2=O)c(F)cc1Cl (stereo not shown)

>  <Preemergence herbicidal rating GALAP>
9.0

$$$$
>  <compound>
CCOC(=O)CN1C(=O)C(C(=O)OCC)SC1=Nc1cc(-n2c(=O)cc(C(F)(F)F)n(C)c2=O)c(F)cc1Cl (stereo not shown)

>  <Preemergence herbicidal rating GALAP>
9.0

$$$$
>  <compound>
CCOC(=O)CN1C(=O)C(Cl)SC1=Nc1cc(-n2c(=O)cc(C(F)(F)F)n(C)c2=O)c(F)cc1Cl (stereo not shown)

>  <Preemergence herbicidal rating GALAP>
9.0

$$$$
>  <compound>
Cn1c(C(F)(F)F)cc(=O)n(-c2cc(N=C3SCC(=O)N3Cc3ccco3)c(Cl)cc2F)c1=O

>  <Preemergence herbicidal rating GALAP>
6.0

$$$$

---

# System: CYPSE (Flatsedge)
# procedureDetails: Preemergence weed control under flooded paddy conditions
# Assay type: in vivo, Cyperus serotinus
# conditionNotes: 0.2500 kg/ha, rated 3-4 weeks after treatment
# Experimental: Results of herbicide evaluation are expressed on a rating scale (0-9). The scale is based upon a visual observation of plant stand, vigor, malformation, size, chlorosis and overall plant appearance as compared with a control. Preemergence herbicidal activity under flooded paddy conditions is determined as follows: plant seeds or propagating organs are planted in the top 0.5 cm of silt loam soil in 32 oz. plastic containers with a diameter of 10.5 cm and no drainage holes. […]
readoutName: CYPSE herbicidal effect rating

>  <compound>
C=CCN1C(=O)C(CC(=O)OC(C)C)SC1=Nc1cc(-n2c(=O)cc(C(F)(F)F)n(C)c2=O)c(F)cc1Cl (centres unmarked)

>  <readoutName>
CYPSE herbicidal effect rating

>  <measuredResult>
4.0

$$$$
>  <compound>
CCOC(=O)CN1C(=O)C(CC(=O)OC(C)C)SC1=Nc1cc(-n2c(=O)cc(C(F)(F)F)n(C)c2=O)c(F)cc1Cl (centres unmarked)

>  <readoutName>
CYPSE herbicidal effect rating

>  <measuredResult>
4.0

$$$$
>  <compound>
CCS(=O)(=O)NC(=O)CC1SC(=Nc2cc(-n3c(=O)cc(C(F)(F)F)n(C)c3=O)c(F)cc2Cl)N(C)C1=O (centres unmarked)

>  <readoutName>
CYPSE herbicidal effect rating

>  <measuredResult>
9.0

$$$$
>  <compound>
CN1C(=O)C(CC(N)=O)SC1=Nc1cc(-n2c(=O)cc(C(F)(F)F)n(C)c2=O)c(F)cc1Cl (centres unmarked)

>  <readoutName>
CYPSE herbicidal effect rating

>  <measuredResult>
9.0

$$$$
>  <compound>
CCOC(=O)CN1C(=O)C(CC(=O)OCCF)SC1=Nc1cc(-n2c(=O)cc(C(F)(F)F)n(C)c2=O)c(F)cc1Cl (centres unmarked)

>  <readoutName>
CYPSE herbicidal effect rating

>  <measuredResult>
4.0

$$$$
>  <compound>
Cn1c(C(F)(F)F)cc(=O)n(-c2cc(N=C3SCC(=O)N3CC(=O)OCC#N)c(Cl)cc2F)c1=O

>  <readoutName>
CYPSE herbicidal effect rating

>  <measuredResult>
6.5

$$$$
>  <compound>
CCOC(=O)[C@H](C)N1C(=O)CSC1=Nc1cc(-n2c(=O)cc(C(F)(F)F)n(C)c2=O)c(F)cc1Cl

>  <readoutName>
CYPSE herbicidal effect rating

>  <measuredResult>
3.0

$$$$
>  <compound>
C=CCN1C(=O)C(CC(=O)NOC)SC1=Nc1cc(-n2c(=O)cc(C(F)(F)F)n(C)c2=O)c(F)cc1Cl (centres unmarked)

>  <readoutName>
CYPSE herbicidal effect rating

>  <measuredResult>
9.0

$$$$

---

# Test system: CHEAL (Lambsquarters, Common)
# procedureDetails: Preemergence herbicidal evaluation
# Format: in vivo, Chenopodium album
# conditionNotes: preemergence, 0.1250 kg/ha, rated 4-5 weeks after treatment, 0-9 scale
# Lookup of reported CHEAL rating keyed by entry
readoutName: CHEAL rating

>  <compound>
CN1C(=O)C(CC(N)=O)SC1=Nc1cc(-n2c(=O)cc(C(F)(F)F)n(C)c2=O)c(F)cc1Cl (stereo not drawn)

>  <readoutName>
CHEAL rating

>  <measuredResult>
9.0

$$$$
>  <compound>
CCS(=O)(=O)NC(=O)CC1SC(=Nc2cc(-n3c(=O)cc(C(F)(F)F)n(C)c3=O)c(F)cc2Cl)N(C)C1=O (stereo not drawn)

>  <readoutName>
CHEAL rating

>  <measuredResult>
9.0

$$$$
>  <compound>
C=CCN1C(=O)C(CC(N)=O)SC1=Nc1cc(-n2c(=O)cc(C(F)(F)F)n(C)c2=O)c(F)cc1Cl (stereo not drawn)

>  <readoutName>
CHEAL rating

>  <measuredResult>
9.0

$$$$
